biological target: T1, soluble human FcRn (human, UniProt P55899 24-297; P61769 21-119, biotinylated (Sulfo-NHS-LC-Biotin) in the ELISA; amine-coupled to CM5 chip in SPR); test: SPR, pH 7.4
T1 construct: also called shFcRn; biotinylated shFcRn
T1 sequence (P55899 24-297 limits assumed, chain 1 of 2): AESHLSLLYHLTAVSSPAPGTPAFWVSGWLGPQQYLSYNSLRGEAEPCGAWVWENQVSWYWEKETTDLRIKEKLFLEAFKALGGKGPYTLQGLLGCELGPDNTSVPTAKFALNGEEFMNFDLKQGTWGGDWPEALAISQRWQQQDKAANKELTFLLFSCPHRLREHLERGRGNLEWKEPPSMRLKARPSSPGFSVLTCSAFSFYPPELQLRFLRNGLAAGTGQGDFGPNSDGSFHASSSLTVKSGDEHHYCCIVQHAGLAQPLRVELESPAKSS
T1 sequence (P61769 21-119 limits assumed, chain 2 of 2): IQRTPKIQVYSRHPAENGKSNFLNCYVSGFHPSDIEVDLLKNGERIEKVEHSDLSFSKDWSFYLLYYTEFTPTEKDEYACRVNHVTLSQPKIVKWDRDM
pKd: −log10 of the molar value. Bridge positions count the residues as written; N and C are the ends. Ends that are not written are not given here.
REPORTED METRIC: pKd

binder="QRFCTGHFGGLYPC-NH2 (disulfide 4-14 (inferred)) [SEQ ID NO:18]" reported_metric=pKd quantitative_result=4.59
binder="CTGHFGGLYPC-NH2 (disulfide 1-11 (inferred)) [SEQ ID NO:19]" reported_metric=pKd quantitative_result=3.49
binder="QRFCTGHFGGLYPCNGP-NH2 (disulfide 4-14 (inferred)) [SEQ ID NO:1]" reported_metric=pKd quantitative_result=4.52
binder="QRFCTGHFGGLYPCN-NH2 (disulfide 4-14 (inferred)) [SEQ ID NO:24]" reported_metric=pKd quantitative_result=4.14
binder="AGQRFCTGHFGGLYPCNGPGTGGGK-NH2 (disulfide 6-16 (inferred)) [SEQ ID NO:6]" reported_metric=pKd quantitative_result=4.35
